test system: Caenorhabditis elegans N2; assay: mean nematode size ln(EXT) after 48 h, plate-adjusted (DMSO control set to 6) (ln(EXT), control-adjusted); higher = larger nematodes / less growth inhibition; settings: 5 µM; exposure time 48 h
Where a name gives a salt, the structure may show the parent alone.
Measurement label: mean nematode size ln(EXT) (ln)
One number for each entry.

On1ccccc1=S [Sodium (2-pyridylthio)-N-oxide] = 5.84
CNC(=O)/C=C(\C)OP(=O)(OC)OC [Monocrotophos] = 5.74
CO[C@H]1/C=C/O[C@@]2(C)Oc3c(C)c(O)c4c(O)c(c(/C=N/N5CCN(C)CC5)c(O)c4c3C2=O)NC(=O)/C(C)=C\C=C\[C@H](C)[C@H](O)[C@@H](C)[C@@H](O)[C@@H](C)[C@H](OC(C)=O)[C@@H]1C [Rifampicin] = 5.94
CCCCCCC(C)OC(=O)COc1nc(F)c(Cl)c(N)c1Cl (stereo unspecified) [Fluroxypyr-meptyl] = 6.02
CCCSP(=O)(OCC)SCCC [Ethoprop] = 5.68
OCc1ccccc1 [Benzyl alcohol] = 5.9

Batch of 3 compounds: report mean nematode size ln(EXT) (ln) for each.
1. c1cc(-c2ccncc2)ccn1 [4,4'-bipyridine]
2. C/C=C\c1ccc(O)c(OC)c1 [Isoeugenol]
3. O=C(O)CCCOc1ccc(Cl)cc1Cl [2,4-DB]

Ans:
1. 5.89
2. 5.95
3. 6.06

// for each compound below, give its mean nematode size ln(EXT) (ln)
1. CCNc1nc(Cl)nc(NC(C)(C)C#N)n1 [Cyanazine]
2. Oc1cc(Cl)ccc1Oc1ccc(Cl)cc1Cl [Triclosan]
3. CN(Cc1cnc2nc(N)nc(N)c2n1)c1ccc(C(=O)N[C@@H](CCC(=O)O)C(=O)O)cc1 [Methotrexate]

Ans:
[5.88, 5.85, 5.81]

// for each compound in input: emit mean nematode size ln(EXT) (ln)
1. O=C(O)c1nc(Cl)ccc1Cl [Clopyralid-olamine]
2. CCCOC(=O)c1cc(O)c(O)c(O)c1 [Propyl gallate]
3. COc1cc(OC)nc(NC(=O)NS(=O)(=O)c2ncccc2OCC(F)(F)F)n1 [Trifloxysulfuron-sodium]
4. CC(C)(C)c1cc(O)c(C(C)(C)C)cc1O [1,4-Benzenediol, 2,5-bis(1,1-dimethylethyl)-]

Ans:
1. 5.95
2. 6.05
3. 6.02
4. 5.73

Batch request: mean nematode size ln(EXT) (ln) for each of the following compounds.
1. COCC(C)N(C(=O)CCl)c1c(C)csc1C (stereo unspecified) [Dimethenamid]
2. c1ccc2ccccc2c1 [Naphthalene]
3. CCCCCC/C(C=O)=C\c1ccccc1 [2-Benzylideneoctanal]
4. Nc1ccn([C@@H]2O[C@H](CO)[C@@H](O)[C@@H]2O)c(=O)n1 [Cytarabine HCl]
5. OC[C@@H](O)[C@@H](O)[C@H](O)[C@H](O)CO [D-Mannitol]

Ans:
1. 6.17
2. 5.96
3. 5.79
4. 5.95
5. 5.93

Hi team, please reply with mean nematode size ln(EXT) (ln) for each item in this list.
1. CCOCCOCCOCCO [2-[2-(2-Ethoxyethoxy)ethoxy]ethanol]
2. c1ccc(-c2ccccc2)cc1 [Biphenyl]
3. Cc1cc(C)nc(Nc2ccccc2)n1 [Pyrimethanil]
4. CCCN(CCC)c1c([N+](=O)[O-])cc(S(N)(=O)=O)cc1[N+](=O)[O-] [Oryzalin]
5. CCOc1ccc2[nH]cc(C(=O)NCc3ccccc3)c(=O)c2n1
6. CCc1ccc(O)c(C(C)(C)C)c1 [2-tert-Butyl-4-ethylphenol]

Ans:
1. 5.95
2. 5.9
3. 5.84
4. 5.84
5. 5.84
6. 5.72

Give measured mean nematode size ln(EXT) (ln) for every item shown.
1. CC(C)C(=O)Nc1ccc([N+](=O)[O-])c(C(F)(F)F)c1 [Flutamide]
2. CC(C)CCCCCCOC(=O)CCCCC(=O)OCCCCCCC(C)C [Diisononyl adipate]

Ans:
[5.89, 5.93]

// for each compound in input: emit mean nematode size ln(EXT) (ln)
1. Clc1ccc(C(Cl)(Cl)Cl)cc1 [4-Chlorobenzotrichloride]
2. Nc1ccc(Oc2ccc(N)cc2)cc1 [4,4'-Oxydianiline]
3. O=C(O)C(F)(F)C(F)(F)C(F)(F)C(F)(F)C(F)(F)C(F)(F)C(F)(F)C(F)(F)C(F)(F)F [Perfluorodecanoic acid]
4. COc1nc(NC(C)C)nc(NC(C)C)n1 [Prometon]
5. FC(F)C(F)(F)OCC(Cn1cncn1)c1ccc(Cl)cc1Cl (stereo unspecified) [Tetraconazole]

Ans:
1: 5.97; 2: 5.84; 3: 5.14; 4: 5.84; 5: 5.98

Look at each compound and report its mean nematode size ln(EXT) (ln).
1. CN(C)NC(=O)CCC(=O)O [Daminozide]
2. CNC(C)=O [N-Methylacetamide]
3. COc1ccc(OC(F)(F)F)cc1CN[C@H]1CCCN[C@H]1c1ccccc1
4. CC(O)CO (stereo unspecified) [Propylene glycol]
5. CSc1nnc(C(C)(C)C)c(=O)n1N [Metribuzin]

Ans:
6.34
6.07
5.68
6.05
5.91

The following compounds each have a reported value; give each one's mean nematode size ln(EXT) (ln).
1. O=C1NC(=O)C(c2ccccc2)(c2ccccc2)N1 [5,5-Diphenylhydantoin]
2. C=CC(N)=O [Acrylamide]

Ans:
1. 5.92
2. 5.69
